Hello, the source for this data is patent US20180273595A1, in case you need it.

- measured_target: T1, recombinant His-tagged full-length ERG (UniProt P11308 1-479, biotinylated with NHS-PEG4 biotin for the OctetRED assays)
- T1 construct: mature; Baculovirus expression in SF9 cells, Ni-NTA purified; also called wild-type ERG; wtERG; not shown: His tag
- T1 sequence (looked up): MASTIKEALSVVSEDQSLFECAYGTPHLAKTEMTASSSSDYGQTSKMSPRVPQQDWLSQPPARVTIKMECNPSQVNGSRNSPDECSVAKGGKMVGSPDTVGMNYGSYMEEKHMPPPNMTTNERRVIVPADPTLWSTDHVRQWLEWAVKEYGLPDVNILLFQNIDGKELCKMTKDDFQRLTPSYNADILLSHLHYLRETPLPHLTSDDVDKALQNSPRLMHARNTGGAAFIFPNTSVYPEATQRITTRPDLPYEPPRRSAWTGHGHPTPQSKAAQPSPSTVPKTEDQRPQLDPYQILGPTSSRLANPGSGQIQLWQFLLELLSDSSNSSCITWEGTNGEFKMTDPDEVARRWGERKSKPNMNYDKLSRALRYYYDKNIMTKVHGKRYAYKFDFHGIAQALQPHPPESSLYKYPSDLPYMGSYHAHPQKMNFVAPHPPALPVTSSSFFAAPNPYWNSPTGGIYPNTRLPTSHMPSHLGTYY
- method_notes: OctetRED; Kd table of synthetic peptides on ERG
Reported Kd values follow for various binders

Some solved cases for reference:
H-PPYL-NH2 (also called H2N-PPYL-NH2) [4PL-N] | > 100 µM
H-PPYLFT-NH2 (also called H2N-PPYLFT-NH2) [6PT-N] | 11.5 µM

Shift focus to the following entry.
Which Kd reading was recorded for the binder Ac-PYLFT-NH2 (also called Ac-PYLFT-NH2) [5PT-A] ?
5.15 µM
